# credit: patent US9133186B2

Measured on: human AMPK α1β1γ1 enzyme (Homo sapiens, UniProt Q13131+Q9Y478)
Construct: purchased Carna Biosciences, Inc
Sequence (Q13131 10-559 limits assumed): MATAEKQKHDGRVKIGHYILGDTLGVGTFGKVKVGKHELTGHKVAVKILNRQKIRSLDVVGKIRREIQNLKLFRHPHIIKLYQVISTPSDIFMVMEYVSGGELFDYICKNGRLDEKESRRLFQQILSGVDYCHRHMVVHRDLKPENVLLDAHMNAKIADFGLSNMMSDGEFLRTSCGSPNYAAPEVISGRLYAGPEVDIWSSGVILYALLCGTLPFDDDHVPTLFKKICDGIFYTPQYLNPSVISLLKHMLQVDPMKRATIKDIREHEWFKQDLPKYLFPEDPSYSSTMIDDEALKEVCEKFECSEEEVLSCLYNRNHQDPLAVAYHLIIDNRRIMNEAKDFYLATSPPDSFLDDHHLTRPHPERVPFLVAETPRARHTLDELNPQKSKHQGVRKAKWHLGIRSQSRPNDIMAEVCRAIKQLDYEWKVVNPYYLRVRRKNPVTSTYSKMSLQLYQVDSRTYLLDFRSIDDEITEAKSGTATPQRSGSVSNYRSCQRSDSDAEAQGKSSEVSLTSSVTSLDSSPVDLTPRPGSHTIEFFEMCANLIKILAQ
Sequence (Q9Y478 whole entry): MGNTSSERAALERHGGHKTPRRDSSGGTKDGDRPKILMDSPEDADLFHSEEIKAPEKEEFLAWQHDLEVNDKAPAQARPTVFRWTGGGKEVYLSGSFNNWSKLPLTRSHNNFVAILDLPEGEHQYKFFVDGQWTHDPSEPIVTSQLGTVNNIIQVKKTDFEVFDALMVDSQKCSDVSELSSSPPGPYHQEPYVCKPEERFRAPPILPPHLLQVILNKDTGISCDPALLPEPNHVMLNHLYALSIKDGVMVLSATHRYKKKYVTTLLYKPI
Sequence (P54619 whole entry partner): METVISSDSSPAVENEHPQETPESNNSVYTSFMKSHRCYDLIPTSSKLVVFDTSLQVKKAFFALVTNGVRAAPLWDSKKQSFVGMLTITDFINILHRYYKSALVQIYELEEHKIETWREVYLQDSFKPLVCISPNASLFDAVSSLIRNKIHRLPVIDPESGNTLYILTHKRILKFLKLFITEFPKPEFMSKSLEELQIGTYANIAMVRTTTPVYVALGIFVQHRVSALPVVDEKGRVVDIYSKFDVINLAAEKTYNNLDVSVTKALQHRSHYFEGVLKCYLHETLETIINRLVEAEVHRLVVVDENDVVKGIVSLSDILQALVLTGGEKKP
Assay text: AMPK activator evaluation, Test Example 1 (mobility shift, FL-Peptide 7)
Assay type: biochemical
Conditions: human AMPK α1β1γ1, control without compound = 100%
Readings of EC150 (compound concentration showing 150% relative to the control) for the listed molecules
Lab note: write values as number then unit, every time.

CC(=O)NC(C)(C)c1ccc(Oc2nc3nc(-c4ccc(N(C)C)cc4)c(Cl)cc3[nH]2)cc1 :: 41 nM
CC(=O)NCCCOc1ccc(-c2nc3nc(Oc4ccc(C(C)(C)NC(C)=O)cc4)[nH]c3cc2Cl)cc1 :: 18 nM
Clc1cc2[nH]c(Oc3cccc(-c4nnn[nH]4)c3)nc2nc1-c1ccc(N2CCOCC2)cc1 :: 66 nM
CC(=O)NC(C)(C)c1ccc(Oc2nc3nc(-c4ccc(N5CCC(O)C5)cc4)c(Cl)cc3[nH]2)cc1 (stereo not shown) :: 3.5 nM
CC(C)(CO)c1ccc(Oc2nc3nc(-c4ccc(N5CCOCC5)cc4)c(Cl)cc3[nH]2)cc1 :: 170 nM
CC(=O)NC(C)(C)c1ccc(Oc2nc3nc(-c4ccc(-c5ccccc5O)cc4)c(Cl)cc3[nH]2)cc1 :: 0.6 nM

Now for a further molecule.
human AMPK α1β1γ1 enzyme (Homo sapiens, UniProt Q13131+Q9Y478) / EC150 (compound concentration showing 150% relative to the control) / "Cc1ccc(Oc2nc3cc(-c4ccc(N5CCOCC5)cc4)c(C)nc3[nH]2)cc1C(=O)O" : value?
25 nM

---

Measured on: Human AMPK α2β2γ1 (Homo sapiens, UniProt O43741+P54646)
Construct: The full length cDNAs of human AMPK P2 (NM_005399.3) and human AMPK α2 (NM_006252.3); 6×His (N); made in house; host or cells: Escherichia coli BL21 CodonPlus (DE3)-RIL
Sequence (P54646 whole entry, one chain of several): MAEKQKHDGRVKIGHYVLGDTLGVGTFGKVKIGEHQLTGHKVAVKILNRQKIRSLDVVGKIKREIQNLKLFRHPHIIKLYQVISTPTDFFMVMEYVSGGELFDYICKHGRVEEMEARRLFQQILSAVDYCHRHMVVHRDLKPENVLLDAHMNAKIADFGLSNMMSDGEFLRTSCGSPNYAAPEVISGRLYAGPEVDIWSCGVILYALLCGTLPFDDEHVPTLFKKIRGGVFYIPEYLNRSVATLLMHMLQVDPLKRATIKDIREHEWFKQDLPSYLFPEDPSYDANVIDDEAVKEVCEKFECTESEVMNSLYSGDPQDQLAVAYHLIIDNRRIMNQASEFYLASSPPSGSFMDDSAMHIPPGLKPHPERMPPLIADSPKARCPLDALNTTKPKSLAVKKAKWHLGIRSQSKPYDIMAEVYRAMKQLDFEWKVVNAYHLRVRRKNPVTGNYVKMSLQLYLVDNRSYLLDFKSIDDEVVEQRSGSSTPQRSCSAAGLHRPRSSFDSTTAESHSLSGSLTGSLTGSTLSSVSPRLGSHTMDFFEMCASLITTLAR
Sequence (O43741 whole entry, one chain of several): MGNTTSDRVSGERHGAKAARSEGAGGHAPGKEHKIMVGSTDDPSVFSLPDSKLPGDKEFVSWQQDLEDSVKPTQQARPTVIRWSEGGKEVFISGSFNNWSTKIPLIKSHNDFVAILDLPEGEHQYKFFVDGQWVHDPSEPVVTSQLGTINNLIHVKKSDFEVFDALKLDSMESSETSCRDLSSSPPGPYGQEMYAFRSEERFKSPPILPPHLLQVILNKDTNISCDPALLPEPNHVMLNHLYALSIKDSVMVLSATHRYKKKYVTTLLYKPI
Assay text: AMPK activator evaluation, Test Example 2 (CaMKK2-phosphorylated enzyme, mobility shift)
Type: biochemical
Conditions: human AMPK α2β2γ1 phosphorylated with CaMKK2, control = 100%
Note: every record was labeled by where its EC150 (compound concentration showing 150% relative to the control) sits among b0 = under 60 nM, b1 = from 60 nM up to 400 nM, b2 = 400 nM and over

CC(=O)NC(C)(C)c1ccc(Oc2nc3nc(-c4ccc(N5CCC(O)C5)cc4)c(Cl)cc3[nH]2)cc1 (stereo not drawn) :: b0
Cc1ccc(Oc2nc3nc(-c4ccc(N5CCOCC5)cc4)c(Cl)cc3[nH]2)cc1C(N)=O :: b1
Cc1ccc(Oc2nc3cc(Cl)c(-c4ccc(-c5ccccc5O)cc4)nc3[nH]2)cc1C(=O)O :: b0
Cc1ncc(Oc2nc3nc(-c4ccc(N5CCOCC5)cc4)c(Cl)cc3[nH]2)cn1 :: b2
Cc1ccc(Oc2nc3nc(-c4ccc(N5CCOCC5)cc4)c(Cl)cc3[nH]2)cn1 :: b1
Cc1ccc(Oc2nc3nc(-c4ccc5c(ccn5C)c4)c(Cl)cc3[nH]2)cc1C(=O)O :: b1

Kindly review the next compound as well.
Category of "O=C(O)c1ccc(Oc2nc3nc(-c4ccc(N5CCOCC5)cc4)c(Cl)cc3[nH]2)cc1" , please.
b2

---

Measured on: human AMPK α1β1γ1 enzyme (Homo sapiens, UniProt Q13131+Q9Y478)
Construct: purchased Carna Biosciences, Inc
Assay text: AMPK activator evaluation, Test Example 1 (mobility shift, FL-Peptide 7)
Type: biochemical
Conditions: human AMPK α1β1γ1, control without compound = 100%
Experimental endpoint: EC150 (compound concentration showing 150% relative to the control) (nM)
Numbers only here, please. The scale is nM.

Cc1ccc(Oc2nc3nc(-c4ccc(N5CCOCC5)cc4)c(C(F)(F)F)cc3[nH]2)cc1C(=O)O [Compound C-96] :: 99
CC(C)(CO)c1ccc(Oc2nc3nc(-c4ccc(N5CCOCC5)cc4)c(Cl)cc3[nH]2)cn1 [Compound D-9] :: 380
Cc1ccc(Oc2nc3nc(-c4ccc(OCC(C)(C)O)cc4)c(Cl)cc3[nH]2)cc1C(=O)O [Compound C-21] :: 36

What EC150 (compound concentration showing 150% relative to the control) value was documented for this molecule, CC(=O)NC(C)(C)c1ccc(Oc2nc3nc(-c4ccc(C5=CCN(C)CC5)cc4)c(Cl)cc3[nH]2)cc1 [Compound D-108] ?
3.3

---

Readings of EC150 (compound concentration showing 150% relative to the control) for the listed compounds
Measured on: human AMPK α1β1γ1 enzyme (Homo sapiens, UniProt Q13131+Q9Y478)
Construct: purchased Carna Biosciences, Inc
Assay text: AMPK activator evaluation, Test Example 1 (mobility shift, FL-Peptide 7)
Type: biochemical
Conditions: human AMPK α1β1γ1, control without compound = 100%
Numbers only here, please. The scale is nM.

# count of solved cases: 5
CC(C)(C(N)=O)c1ccc(Oc2nc3nc(-c4ccc(C5(CO)CC5)cc4)c(Cl)cc3[nH]2)cn1 [Compound D-71] :: 860
CC(C)(C(=O)NCCO)c1ccc(Oc2nc3nc(-c4ccc(N5CCOCC5)cc4)c(Cl)cc3[nH]2)cc1 [Compound C-107] :: 300
CC(C)(C)C(=O)NC(C)(C)c1ccc(Oc2nc3nc(-c4ccc(N5CCOCC5)cc4)c(Cl)cc3[nH]2)cc1 [Compound D-65] :: 42
Cc1ccc(Oc2nc3nc(-c4ccc(-c5ccccc5)cc4)c(Cl)cc3[nH]2)cc1C(=O)O [Compound B-22] :: 13
O=C(O)COc1ccc(Oc2nc3nc(-c4ccc(N5CCOCC5)cc4)c(Cl)cc3[nH]2)cc1 [Compound B-110] :: 160

human AMPK α1β1γ1 enzyme (Homo sapiens, UniProt Q13131+Q9Y478) / EC150 (compound concentration showing 150% relative to the control) / CC(=O)NC(C)(C)c1ccc(Oc2nc3nc(-c4ccc(N5CCOCC5)cc4)c(Cl)cc3[nH]2)cc1F [Compound D-8] : value?
39

Input CNc1ncc(Oc2nc3nc(-c4ccc(N5CCOCC5)cc4)c(Cl)cc3[nH]2)cn1 [Compound D-31]
19

---

Measured on: human AMPK α1β1γ1 enzyme (Homo sapiens, UniProt Q13131+Q9Y478)
Construct: purchased Carna Biosciences, Inc
Assay text: AMPK activator evaluation, Test Example 1 (mobility shift, FL-Peptide 7)
Type: biochemical
Conditions: human AMPK α1β1γ1, control without compound = 100%; read-out: Emax (maximum rate of increase in activity within the measurement range)
Readings of Emax for the listed compounds
Numbers only here, please. The scale is %.

# count of solved cases: 5
Cc1ccc(Oc2nc3nc(-c4ccccc4)c(Cl)cc3[nH]2)cc1C(=O)O [Compound B-10] :: 290
CC(C)(C(N)=O)c1ncc(Oc2nc3nc(-c4ccc(N5CCOCC5)cc4)c(Cl)cc3[nH]2)cn1 [Compound D-54] :: 252
NCc1ccc(Oc2nc3nc(-c4ccc(N5CCOCC5)cc4)c(Cl)cc3[nH]2)cc1 [Compound B-117] :: 243
CC(=O)NCC(C)(C)c1ccc(Oc2nc3nc(-c4ccc(N5CCOCC5)cc4)c(Cl)cc3[nH]2)cc1 [Compound D-33] :: 220
CC(=O)NC(C)(C)c1ccc(Oc2nc3nc(-c4ccc(CCO)cc4)c(Cl)cc3[nH]2)cc1 [Compound D-17] :: 282

What Emax value was documented for this compound, NS(=O)(=O)c1ccc(Oc2nc3nc(-c4ccc(N5CCOCC5)cc4)c(Cl)cc3[nH]2)cc1 [Compound B-133] ?
234

Input OCc1ccc(Oc2nc3nc(-c4ccc(N5CCOCC5)cc4)c(Cl)cc3[nH]2)cc1 [Compound B-131]
298

Input CC(=O)NC(C)(C)c1ccc(Oc2nc3nc(-c4ccc(C5=CCOCC5)cc4)c(Cl)cc3[nH]2)cc1 [Compound D-73]
254

Input CC(=O)NC(C)(C)c1ccc(Oc2nc3nc(-c4cccc(N(C)C)c4)c(Cl)cc3[nH]2)cc1 [Compound D-26]
282

Input CC(C)(C(N)=O)c1ccc(Oc2nc3nc(-c4ccc(N5CCOCC5)cc4)c(Cl)cc3[nH]2)cn1 [Compound D-7]
285

---

Measured on: human AMPK α1β1γ1 enzyme (Homo sapiens, UniProt Q13131+Q9Y478)
Construct: purchased Carna Biosciences, Inc
Assay text: AMPK activator evaluation, Test Example 1 (mobility shift, FL-Peptide 7)
Assay type: biochemical
Conditions: human AMPK α1β1γ1, control without compound = 100%; read-out: Emax (maximum rate of increase in activity within the measurement range)
Field 'label' (enum: criterion met / criterion not met). Set to criterion met when Emax is strictly under 200%; else criterion not met.

// known answers, use as guide
CNc1ncc(Oc2nc3nc(-c4ccc(N5CCOCC5)cc4)c(Cl)cc3[nH]2)cn1 :: criterion not met
CC(C)(C(N)=O)c1ccc(Oc2nc3nc(-c4ccc(C5(COC(N)=O)CC5)cc4)c(Cl)cc3[nH]2)cc1 :: criterion not met
Cc1ccc(Oc2nc3nc(N4CCCCC4)c(Cl)cc3[nH]2)cc1C(=O)O :: criterion not met
CC(C)(C(N)=O)c1ccc(Oc2nc3nc(-c4ccc(N5CCOCC5)cc4)c(Cl)cc3[nH]2)cc1 :: criterion met
COCC(=O)NC(C)(C)c1ccc(Oc2nc3nc(-c4ccc(N5CCOCC5)cc4)c(Cl)cc3[nH]2)cc1 :: criterion not met
CC(C)(C(=O)O)c1ccc(Oc2nc3nc(-c4ccc(N5CCCC5)cc4)c(F)cc3[nH]2)cc1 :: criterion not met

Does "CC(=O)NC(C)(C)c1ccc(Oc2nc3nc(-c4ccc(N5CCOCC5)cc4)c(Cl)cc3[nH]2)cn1" have Emax strictly under 200%?
criterion met

Input "CC(=O)NC(C)(C)c1ccc(Oc2nc3nc(-c4ccc(C5(CO)CC5)cc4)c(Cl)cc3[nH]2)cn1"
criterion met
